# Assay Target: CD33 (Sino Biological, Cat #12238-H08H) (UniProt P20138 18-259)
# Sequence (P20138 18-259 limits assumed): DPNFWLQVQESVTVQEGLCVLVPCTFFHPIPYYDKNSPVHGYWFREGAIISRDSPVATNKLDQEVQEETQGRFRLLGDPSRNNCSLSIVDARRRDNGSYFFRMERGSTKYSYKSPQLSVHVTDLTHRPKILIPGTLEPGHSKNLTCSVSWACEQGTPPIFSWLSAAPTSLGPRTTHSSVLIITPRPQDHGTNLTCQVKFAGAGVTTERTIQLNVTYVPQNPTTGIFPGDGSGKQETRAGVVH
# Protocol Notes: BLI, IgG captured on anti-human Fc sensor, 50 nM CD33, pH 7.4 vs pH 5.4

{"Binder": "MYT2625 (antibody, V domains shown, IgG; IMGN779 VL variant #9 (S32H)) VH: QVQLQQPGAEVVKPGASVKMSCKASGYTFTSYYIHWIKQTPGQGLEWVGVIYPGNDDISYNQKFQGKATLTADKSSTTAYMQLSSLTSEDSAVYYCAREVRLRYFDVWGQGTTVTVSS VL: EIVLTQSPGSLAVSPGERVTMSCKSSQSVFFHSSQKNYLAWYQQIPGQSPRLLIYWASTRESGVPDRFTGSGSGTDFTLTISSVQPEDLAIYYCHQYLSSRTFGQGTKLEIK", "binding result": "binds"}
{"Binder": "MYT1228 (antibody, V domains shown, IgG; IMGN779 VH variant #16 (N55H)) VH: QVQLQQPGAEVVKPGASVKMSCKASGYTFTSYYIHWIKQTPGQGLEWVGVIYPGHDDISYNQKFQGKATLTADKSSTTAYMQLSSLTSEDSAVYYCAREVRLRYFDVWGQGTTVTVSS VL: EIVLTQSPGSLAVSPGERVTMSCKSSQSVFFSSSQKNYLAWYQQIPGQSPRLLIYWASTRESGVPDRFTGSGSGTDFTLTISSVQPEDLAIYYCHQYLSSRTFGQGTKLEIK", "binding result": "binds"}
{"Binder": "MYT2662 (antibody, V domains shown, IgG; vadastuximab VL variant #10 (L33H)) VH: QVQLVQSGAEVKKPGASVKVSCKASGYTFTNYDINWVRQAPGQGLEWIGWIYPGDGSTKYNEKFKAKATLTADTSTSTAYMELRSLRSDDTAVYYCASGYEDAMDYWGQGTTVTVSS VL: DIQMTQSPSSLSASVGDRVTINCKASQDINSYHSWFQQKPGKAPKTLIYRANRLVDGVPSRFSGSGSGQDYTLTISSLQPEDFATYYCLQYDEFPLTFGGGTKVEIK", "binding result": "binds"}
